Overview of recorded Growth Rate for various molecules
test system: HEK-293T; assay: Incucyte cell viability with HEK293T; format: toxicity, cell-based; conditions: human, 6 h, 10 µM, compound concentration 10 uM, replicate number 2; further: unitless GR value; below 1 slowed growth and below 0 cell loss
property-name: Growth Rate

1) CCN(C)S(=O)(=O)Nc1cccc(-c2ccc3c(NC(=O)C4CC4)n[nH]c3c2)c1: -0.69
2) CN1CCN(c2nc(N)c3ccccc3n2)CC1: 0.91
3) CC(C)N1CCN(Cc2cnc(-c3cc(-c4cccc5[nH]ccc45)cc4[nH]ncc34)o2)CC1: -0.48
4) C=CC[C@@H]1/C=C(\C)C[C@H](C)C[C@H](OC)[C@H]2O[C@@](O)(C(=O)C(=O)N3CCCC[C@H]3C(=O)O[C@H](/C(C)=C/[C@@H]3CC[C@@H](O)[C@H](OC)C3)[C@H](C)[C@@H](O)CC1=O)[C@H](C)C[C@@H]2OC.O: 0.77
5) CC(C)(C)c1ccc(-c2coc3ccc(-c4cn[nH]c4)nc23)cc1: 0.37
6) Nc1ncnc2c1c(I)cn2[C@@H]1O[C@H](CO)[C@@H](O)[C@H]1O: -0.01
7) Cn1c(C2(NC(=O)c3ccc4c(C5CCCC5)c(-c5ncc(Br)cn5)n(C)c4c3)CCC2)nc2ccc(/C=C/C(=O)O)cc21: 0.72
8) C=CC(=O)Nc1ccc(C(=O)Nc2n[nH]c3c2CN(C(=O)N[C@H](CN(C)C)c2ccccc2)C3(C)C)cc1: -0.51
9) Cc1nc(-c2ccc(C(F)(F)F)cc2)sc1C(=O)NCc1ccc(OC(C)(C)C(=O)O)cc1: 0.83
10) Cc1ccc(NC(=O)c2ccc3cnccc3c2)cc1C(=O)Nc1cnc(Nc2cccc(NC3CCN(C(=O)/C=C/CN(C)C)CC3)c2)nc1: -0.98
11) O=S1(=O)NCN(C2CC2)c2ccc(F)cc21: 0.62
12) Clc1ccccc1C(c1ccccc1)(c1ccccc1)n1cccn1: 0.9
13) Cc1cccc([C@H]2CC[C@@H](N3CCN(c4cccnc4)CC3)CC2)c1.O=C(O)C(F)(F)F.O=C(O)C(F)(F)F: 0.45
14) CN(C)C(=O)c1cc2cnc(Nc3ccc(N4CCN(CCCCNC(=O)COc5cccc6c5C(=O)N(C5CCC(=O)NC5=O)C6=O)CC4)cn3)nc2n1C1CCCC1 (centres undefined): 0.46
15) O=C1c2c(Br)c(Br)c(Br)c(Br)c2C(=O)N1c1ncc[nH]1: 0.37
16) CC[N+](CC)(CC)CCOc1ccc(/C=C/c2ccccc2)cc1.[I-] [STILONIUM IODIDE]: 0
17) CC(C)[C@@H]1CC[C@@H](C)C[C@@H]1P(=O)(c1ccccc1)c1ccccc1: 0.56
18) COc1c(OCCCN2CCOCC2)ccc2c1N=C(NC(=O)c1cnc(N)nc1)N1CCN=C21: -0.34
19) COc1ccccc1-c1cc(Nc2cccc(CS(N)(=O)=O)c2)ncn1: -0.38
20) Cl.O=C(NCCN1CCC2(CC1)C(=O)NCN2c1cccc(F)c1)c1ccc2ccccc2c1: -0.93
21) CCC(C)(C)NC(=NC#N)Nc1cccnc1: 0.56
22) Cl.Cl.c1ccc2c(-c3cnn4cc(-c5ccc(N6CCNCC6)cc5)cnc34)ccnc2c1: -0.92
23) Cc1ncc(C(=O)Nc2cc(C(C)(C)C)on2)cc1-n1cc(-c2cnn(C)c2C)nn1.Cl: 0.65
24) C=CC(=O)Nc1cccc(C(=O)Nc2ccc(Nc3cc(-c4c(-c5ccc(F)cc5)nc(SC)n4C)ccn3)cc2)c1: 0.39
25) CN(C)C/C=C/C(=O)Nc1cc2c(Nc3ccc(F)c(Cl)c3)ncnc2cc1OC[C@@H]1CCCO1: -0.55
26) O=C(NCCS(=O)(=O)c1ccc(C(F)(F)F)cn1)c1ccc(Cl)cc1: 0.83
27) C=CC(=O)Nc1ccc2[nH]c(=O)n(C3CCN(Cc4ccc(-c5ccc6c(c5)NC(=O)CO6)cc4)CC3)c2c1: 0.23
28) O=C([O-])c1cc2cc(Cc3cccnc3)ccc2o1.[Na+]: 0.83
29) O=C(NC[C@@H]1[C@H]2CN(C(=O)OCc3cc(C(F)(F)F)cc(C(F)(F)F)c3)C[C@@H]12)c1ccc2[nH]nnc2c1: -0.7
30) COc1ncc2cc(C(=O)Nc3cc(C(=O)NCc4cccc(Cl)c4)ccc3Cl)c(=O)[nH]c2n1: -0.03
31) C[C@@H](NC(=O)Cc1ccc(C2CC2)cc1)c1ccc(OCC(F)(F)F)cn1: 0.17
32) c1ccc(C(OC2CCN(CCCc3nnn[nH]3)CC2)c2ccccc2)cc1: 0.46
33) Cc1cc(NC(=O)c2cccc(NC(=O)/C=C/CN(C)C)c2)ccc1Nc1nccc(-c2cccnc2)n1: -0.41
34) Cc1cccc(-c2[nH]c(CNc3ccccc3F)nc2-c2ccc3ncnn3c2)n1: 0.58
